Below, each of the compounds is paired with its reported inhibition value.
molecular target: L-lactate dehydrogenase (Plasmodium falciparum (isolate CDC / Honduras)) (UniProt Q27743); assay: PfLDH activity inhibition – cell lysate, 3D7 strain, counter-screen for P. falciparum growth inhibition project (AID 2304);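 also: 0% = vehicle and 100% = reference inhibitor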; conditions: P. falciparum 3D7 crude extract, LDH APAD/NBT absorbance; at 2 µM; hits give high values
Sequence (Q27743 whole entry, looked up): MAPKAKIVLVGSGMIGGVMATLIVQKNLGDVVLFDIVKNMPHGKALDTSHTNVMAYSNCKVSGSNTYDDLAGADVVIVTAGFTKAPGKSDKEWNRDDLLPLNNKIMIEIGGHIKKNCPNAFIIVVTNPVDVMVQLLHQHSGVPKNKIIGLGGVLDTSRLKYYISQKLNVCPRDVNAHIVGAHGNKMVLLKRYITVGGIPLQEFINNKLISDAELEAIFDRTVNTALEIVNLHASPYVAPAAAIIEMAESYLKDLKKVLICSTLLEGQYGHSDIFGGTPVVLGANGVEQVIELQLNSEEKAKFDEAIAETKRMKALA
Numeric answer only, unit % assumed.

>>> numeric_result("CCCc1cc(Cc2cnc(N)nc2N)cc(OCCCCCC(=O)O)c1OC")
4

# evaluate next
Requested field: inhibition. Item: COc1ccc2nc(Nc3nc4ccncc4[nH]3)sc2c1
0

* * *

assay: inhibition of 3D7 malaria parasite growth – strain 3D7 (AID 2306);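 also: 0% = DMSO wells and 100% = chloroquine plus artemisinin control wells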; settings: P. falciparum 3D7 erythrocytic growth, LDH absorbance, 72 h; at 2 µM; hits give high values
Below, each of the molecules is paired with its reported growth inhibition value.
Numeric answer only, unit % assumed.

>>> numeric_result("CN1CCN(CC(=O)Nc2cccc(-c3cccc(-c4nc5ccc(F)cc5[nH]4)c3)c2)CC1")
100
>>> numeric_result("Oc1ccc(CCNc2nc(NCCCOc3ccccc3-c3cccc(C(F)(F)F)c3)nc(N3CCNCC3)n2)cc1")
93
>>> numeric_result("Cc1ccc(C2CCN(CCCCNC(=O)c3ccc(-c4ccc(C#N)cc4)cc3)CC2)c(O)c1")
100

Requested field: growth inhibition. Item: COc1cccc(-c2cc(C(=O)NC3CCC(N4CCC(c5ccccc5C)CC4)CC3)[nH]n2)c1 (centres undefined)
99

Let us now turn to COc1cc(C(=O)NC2CCc3ccccc32)cc(Cl)c1OC (centres undefined)
85

Let us now turn to Cc1cc(NN=CC=Cc2ccccc2)c2ccccc2n1
101

Let us now turn to OC(c1ccc(Cl)cc1)(c1ccc(Cl)cc1)C(c1ccc(Cl)cc1)n1ccnc1 (centres undefined)
101

Let us now turn to O=C(NC1CCCc2ccccc21)C1CCCN(C(=O)c2ccc(O)c(-c3ccc(Cl)c(Cl)c3)c2)C1 (centres undefined)
88

Let us now turn to O=c1[nH]c2ccc3[nH]cccc3c2c1C=Nc1ccc(N2CCN(CCO)CC2)cc1
86

* * *

experiment: human hepatoma cell viability loss – ATP luminescence, cytotoxicity control for P. falciparum antimalarial project, primary screen (AID 2303); settings: HepG2 viability, 24-48 h, at 10 µM;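 also: 0% = DMSO wells and 100% = digitonin-killed cells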
The source made the active and inactive calls.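 How the source made its calls: active means inhibition above 50%; inactive means the rest.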
Please reply with one of these outcomes: active, inactive

Study these solved cases before continuing.
>>> classification("CNC(=O)c1cc(S(=O)(=O)Nc2ccc(OC)cc2)cs1")
"inactive"
>>> classification("CCc1cn2c3c(cc(C(=O)N[C@@H](Cc4ccccc4)[C@H](O)CNC4CCCCC4)cc13)N(CC)S(=O)(=O)CC2")
"inactive"
>>> classification("CCCCCCCN(Cc1ccc(OC(C)(C)C(=O)OCC)cc1)C(=O)Nc1ccccc1OC(F)(F)F")
"inactive"

Name the outcome recorded for CC[C@H](NC(=O)c1c(CCCN2CCN(c3ccccc3)CC2)c(-c2ccccc2)nc2cc(O)ccc12)c1ccccc1 in the assay.
inactive

Let us now turn to O=C(NC1CC1)c1ccc(N2CCCC(COc3ccc4c(c3)CCCC4)C2)nc1 (stereo not drawn)
inactive

Let us now turn to COc1ccccc1NC(=S)N/N=C/c1ccc(O)cc1O
inactive

* * *

assay: antimalarial activity against Dd2 strain (AID 2302);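 also: 0% = DMSO untreated growth and 100% = chloroquine plus artemisinin killed control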; conditions: P. falciparum Dd2 in RBCs, LDH growth readout, 72 h; at 2 µM; hits give high values
Below, each of the molecules is paired with its reported growth inhibition value.
Numeric answer only, unit % assumed.

>>> numeric_result("COc1ccc(C2SCC(=O)N2CCc2ccc(OC)c(OC)c2)cc1 (stereo not given)")
2
>>> numeric_result("O=C1COc2ccc(S(=O)(=O)N3CCC[C@@H]3CCN3CCC(c4c[nH]c5cnccc45)CC3)cc2N1")
6
>>> numeric_result("CC(C)C(NC(=O)Cc1cccc2ccccc12)C(=O)Nc1cccc(C#N)c1 (stereo not given)")
91
>>> numeric_result("CCOc1ccc2c(c1)N(C(=O)C=Cc1ccccc1)C(C)(C)c1ssc(=S)c1-2")
77

Requested field: growth inhibition. Item: Cc1[nH]c(-c2ccc(F)cc2)cc1C(=O)NC1CCN(Cc2ccccc2)CC1
9

* * *

target: Protein kinase 7 (PK7), Plasmodium falciparum 3D7 (PF3D7_0213400); assay: inhibition of Plasmodium PK7 catalytic activity – biochemical, TCAMS antimalarial set, Kinase-Glo luminescence (AID 1159587); settings: recombinant PfPK7, Kinase-Glo ATP depletion luminescence
Active and inactive are the calls of the source. The rule behind the calls is not given here.
Quantity: outcome

>>> result("COc1cc(F)c2ncc(F)c([C@@H](O)CN3CCC(NCc4cc5c(cn4)OCCO5)CC3)c2c1")
"inactive"
>>> result("CCNC(C)(C)CN(Cc1ccc(-c2ccc(C(F)(F)F)cc2)cc1)C(=O)Cn1c(SCc2ccc(F)cc2)nc(=O)c2c1CCC2")
"inactive"
>>> result("O=C(NCCc1cccc(F)c1)c1cc(Br)cc(N2CCN(c3ccncc3)CC2)c1")
"inactive"
>>> result("CC(C)N1CCN(C(CN2CCN(CCCOc3cccc(F)c3)CC2)c2ccc(F)cc2)CC1 (centres undefined)")
"inactive"

* * *

molecular target: Calcium-dependent protein kinase 1 (Plasmodium falciparum (isolate 3D7)); assay: PfCDPK1 kinase inhibitors, biochemical, TCAMS library (AID 1159585); conditions: recombinant PfCDPK1, Kinase-Glo ATP depletion luminescence;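 also: inhibitors leave more ATP so luminescence rises with inhibition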
Results with a measured potency or affinity are listed apart. Activity calls are given as the source filed them. Cut-off not given; nearly all actives show IC50 up to about 0.98 µM.
Quantity: outcome

>>> result("Cc1ccc(S(=O)(=O)N(CCCNCc2cccc(O)c2)c2ccccc2)cc1")
"inactive"
>>> result("COC(=O)c1cccc(C#CCCOCCCCCCNC[C@H](O)c2cc(Cl)c(N)c(Cl)c2)c1")
"inactive"
>>> result("Nc1nc(N)c2c(Cl)c(N(Cc3ccccc3)Cc3ccccc3)ccc2n1")
"inactive"
>>> result("Cc1cc(Nc2ccc(O)cc2)nc2cccc(O)c12")
"inactive"
>>> result("CCn1c(-c2nonc2N)nc2c(Cl)ncc(O[C@H](CCN)c3ccccc3F)c21")
"inactive"

Requested field: outcome. Item: O=C(CCC1CCCC1)N(Cc1ccc(-c2ccc(CNCCc3ccccc3)cc2)cc1)C1CCCNC1 (stereo unspecified)
inactive

Let us now turn to CN(C)CCOc1cc(NC(=O)Nc2cccc([N+](=O)[O-])c2)ccc1I
inactive

Let us now turn to COc1ccc(-c2ncnc(C(F)(F)F)c2-c2ccc(Cl)cc2)c(O)c1
inactive

* * *

assay: inhibition of 3D7 malaria parasite growth – strain 3D7 (AID 2306);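 also: 0% = DMSO wells and 100% = chloroquine plus artemisinin control wells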; conditions: P. falciparum 3D7 erythrocytic growth, LDH absorbance, 72 h; at 2 µM; hits give high values
Quantity: growth inhibition (%)
Numeric answer only, unit % assumed.

Some solved cases for reference:
>>> numeric_result("CCNc1cc(C)nc(Nc2ccc(NC(=O)c3ccco3)cc2)n1")
95
>>> numeric_result("O=C(NCCN1CCN(S(=O)(=O)c2ccc(OC3CCNCC3)c(Br)c2)CC1)c1ccc(Cl)c(Cl)c1")
89
>>> numeric_result("CCN1CCN(Cc2ccc(-c3ccc(NS(=O)(=O)c4cccc5cccnc45)cc3)cc2)CC1")
90
>>> numeric_result("O=C(c1ccc(Cl)c(Cl)c1)N1CCc2c([nH]c3ccccc23)C1CN1CCCC1 (configuration not stated)")
94
>>> numeric_result("O=C(/C=C/c1ccc(I)cc1)NCCCCCN1CCC(c2c[nH]c3ccc(O)cc23)CC1")
97
>>> numeric_result("COc1ccc2nccc(N3CCC(CCNCc4cc5c(cn4)OCCO5)CC3)c2c1")
100

Requested field: growth inhibition. Item: O=S(=O)(ON=C1CCc2ccccc21)c1ccc(Cl)cc1
100

Let us now turn to O=C(NCCNc1ccnc2cc(Cl)ccc12)c1ccccc1F
99

* * *

target: L-lactate dehydrogenase (Plasmodium falciparum (isolate CDC / Honduras)) (UniProt Q27743); experiment: PfLDH activity inhibition – cell lysate, 3D7 strain, counter-screen for P. falciparum growth inhibition project (AID 2304);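 also: 0% = vehicle and 100% = reference inhibitor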; conditions: P. falciparum 3D7 crude extract, LDH APAD/NBT absorbance; at 2 µM; hits give high values
Quantity: inhibition (%)
Numeric answer only, unit % assumed.

>>> numeric_result("CN(C)CCCNc1nccc(N(C)c2ccc(NC(=O)Nc3cc(C(F)(F)F)ccc3F)cc2)n1")
2
>>> numeric_result("COc1ccc(CCNCC(O)c2cccc(Br)c2)c(Cl)c1OC (centres undefined)")
0
>>> numeric_result("CCC(CO)NCC(O)Cn1c2ccc(Cl)cc2c2cc(Cl)ccc21 (centres undefined)")
-2

Requested field: inhibition. Item: COc1c(C2CCN(CCCCNC(=O)c3ccc(-c4ccc(C#N)cc4)nc3)CC2)ccc2c1CCCC2
-2

Let us now turn to Cc1cc(N2CCCC2)nc(Nc2ccc(NC(=O)C(C)C)cc2)n1
2

Let us now turn to O=C(Nc1cccc(-c2nc3ccccc3[nH]2)c1)c1cccc(NC(=O)c2ccco2)c1
0

Let us now turn to CCCN(CCC)C(=O)c1cc(C(=O)N[C@@H](Cc2ccccc2)[C@H](O)CNC(C)(C)c2cccc(OC)c2)cc(N2CCCCS2(=O)=O)c1
-3

Let us now turn to Cc1cc(C)c(O)c(-c2cc(C(=O)Nc3ccc(S(=O)(=O)N4CC(C)OC(C)C4)cc3)[nH]n2)c1 (centres undefined)
-1

Let us now turn to Cc1[nH]c(C)c(-c2ccc(OCc3cc(C(F)(F)F)cc(C(F)(F)F)c3)nc2)c(=O)c1Cl
-1
